assay.notes: Cytotoxicity against human Hep3B cells assessed as decrease in cell viability incubated for 48 hrs by MTT assay
Type: cell-based, Hep 3B2
condition.parameters: read-out: LD50
test.readout: CC50 at 48 h (µM)
# value in µM; strip the unit string

Solved cases (4 shown):
compound	test.readout	recorded.number
O=C1CCc2ccccc2N1CCCCN1CCC2(CC1)OCc1ccccc12	CC50 at 48 h	50
O=c1oc(-c2ccccc2)nn1CCCCN1CCN(C2CCCCC2)CC1	CC50 at 48 h	71
O=C1CCc2ccccc2N1CCCCN1CCN(C2CCCCC2)CC1	CC50 at 48 h	81
Cc1ccc(CN(C)CCCCn2nc(-c3ccccc3)oc2=O)c(C)c1	CC50 at 48 h	70

Which CC50 at 48 h is reported for this molecule? `COc1cc2c(cc1OC)CN(CCCCN1C(=O)CCc3ccccc31)CC2`
67

Which CC50 at 48 h is reported for this molecule? `Cc1ccc(CN(C)CCCCN2C(=O)CCc3ccccc32)c(C)c1`
60

Which CC50 at 48 h is reported for this molecule? `O=C1CCc2ccccc2N1CCCCN1CCN(c2ccc(F)cc2)CC1`
77

Which CC50 at 48 h is reported for this molecule? `O=c1oc(-c2ccccc2)nn1CCCCN1CCC2(CC1)OCc1ccccc12`
51

Which CC50 at 48 h is reported for this molecule? `COc1cc2c(cc1OC)CN(CCCCn1nc(-c3ccccc3)oc1=O)CC2`
70

====

assay.notes: Cytotoxicity against human Hep3B cells assessed as cell viability at 25 uM incubated for 48 hrs by MTT assay relative to control
Assay type: cell-based, Hep 3B2
condition.parameters: read-out: Activity
test.readout: viability at 48 h, 25 µM (%)
# value in %; strip the unit string

compound	viability at 48 h, 25 µM / %
COc1cc2c(cc1OC)CN(CCCCN1C(=O)CCc3ccccc31)CC2	70

Which viability at 48 h, 25 µM is reported for this compound? `Cc1ccc(CN(C)CCCCn2nc(-c3ccccc3)oc2=O)c(C)c1`
83

Which viability at 48 h, 25 µM is reported for this compound? `COc1cc2c(cc1OC)CN(CCCCn1nc(-c3ccccc3)oc1=O)CC2`
75

====

tgt: Glutamate NMDA receptor; GRIN1/GRIN2B (Homo sapiens, UniProt Q05586+Q13224)
Sequence (Q13224 whole entry, other chains not shown): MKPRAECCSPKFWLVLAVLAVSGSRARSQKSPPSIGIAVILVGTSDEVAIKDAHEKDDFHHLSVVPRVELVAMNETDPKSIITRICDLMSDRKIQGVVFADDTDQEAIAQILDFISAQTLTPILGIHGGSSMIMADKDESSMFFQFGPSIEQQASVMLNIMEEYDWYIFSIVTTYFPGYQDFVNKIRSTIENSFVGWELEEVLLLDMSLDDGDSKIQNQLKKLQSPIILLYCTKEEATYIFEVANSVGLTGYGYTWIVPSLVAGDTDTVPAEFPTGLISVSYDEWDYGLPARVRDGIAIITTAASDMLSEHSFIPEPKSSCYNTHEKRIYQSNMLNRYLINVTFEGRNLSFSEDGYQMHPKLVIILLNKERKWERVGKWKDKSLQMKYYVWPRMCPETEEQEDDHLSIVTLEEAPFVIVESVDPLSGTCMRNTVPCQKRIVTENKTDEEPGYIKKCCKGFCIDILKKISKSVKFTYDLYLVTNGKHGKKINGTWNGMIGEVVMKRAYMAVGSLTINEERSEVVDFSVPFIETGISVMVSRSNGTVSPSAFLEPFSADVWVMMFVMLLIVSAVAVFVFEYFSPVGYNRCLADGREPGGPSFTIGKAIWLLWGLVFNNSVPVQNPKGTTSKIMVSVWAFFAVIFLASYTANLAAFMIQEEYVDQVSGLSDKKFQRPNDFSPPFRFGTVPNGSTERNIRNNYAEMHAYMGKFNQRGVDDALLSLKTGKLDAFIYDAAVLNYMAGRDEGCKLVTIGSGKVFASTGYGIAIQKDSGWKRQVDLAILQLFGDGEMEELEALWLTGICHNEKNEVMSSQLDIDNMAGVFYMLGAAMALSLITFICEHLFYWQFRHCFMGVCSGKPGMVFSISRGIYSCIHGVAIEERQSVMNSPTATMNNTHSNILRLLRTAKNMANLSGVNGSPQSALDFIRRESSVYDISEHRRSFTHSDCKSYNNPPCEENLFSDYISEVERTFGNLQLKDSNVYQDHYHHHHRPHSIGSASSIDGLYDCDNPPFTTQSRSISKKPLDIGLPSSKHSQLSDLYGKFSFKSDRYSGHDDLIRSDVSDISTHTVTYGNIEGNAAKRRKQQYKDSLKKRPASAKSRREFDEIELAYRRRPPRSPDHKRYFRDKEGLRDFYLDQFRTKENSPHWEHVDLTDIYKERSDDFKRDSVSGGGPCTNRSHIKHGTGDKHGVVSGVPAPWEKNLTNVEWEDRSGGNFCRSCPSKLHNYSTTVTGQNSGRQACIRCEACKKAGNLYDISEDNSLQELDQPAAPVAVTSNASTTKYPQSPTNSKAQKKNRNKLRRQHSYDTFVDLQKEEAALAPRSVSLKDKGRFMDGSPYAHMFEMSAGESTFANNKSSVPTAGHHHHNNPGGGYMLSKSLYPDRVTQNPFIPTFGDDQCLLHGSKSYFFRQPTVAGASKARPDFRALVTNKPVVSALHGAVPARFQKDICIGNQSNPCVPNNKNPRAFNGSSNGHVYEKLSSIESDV
assay.notes: Displacement of [3H]ifenprodil from GluN1a/GluN2B (unknown origin) expressed in mouse L(tk-) cell membranes after 120 mins by solid scintillation counting method
Values of Ki strictly less than 30 nM map to class 1, and values of at least 30 nM map to class 0.

compound	class.label
O=c1oc(-c2ccccc2)nn1CCCCN1CCC2(CC1)OCc1ccccc12	class 1
O=c1oc(-c2ccccc2)nn1CCCCN1CCN(c2ccc(F)cc2)CC1	class 0
O=c1oc(-c2ccccc2)nn1CCCCN1CCc2ccc([N+](=O)[O-])cc2C1	class 0
O=C1CCc2ccccc2N1CCCCN1CCN(c2ccc(F)cc2)CC1	class 1
O=c1oc(-c2ccccc2)nn1CCCCN1CCN(c2ccccn2)CC1	class 0
O=C1CCc2ccccc2N1CCCCN1CCC2(CC1)OCc1ccccc12	class 1
O=c1oc(-c2ccccc2)nn1CCCCN1CCN(C2CCCCC2)CC1	class 1

Okay, next one:
# TODO verify Ki < 30 nM strictly for this molecule: `COc1cc2c(cc1OC)CN(CCCCn1nc(-c3ccccc3)oc1=O)CC2`
class 1

====

assay.notes: Antioxidant activity assessed as H2O2 radical scavenging activity
Assay type: functional
test.readout: IC50 (µg/mL)
# value in µg/mL; strip the unit string

compound	test.readout	recorded.number
COc1cc2c(cc1OC)CN(CCCCn1nc(-c3ccccc3)oc1=O)CC2	IC50	27.63

Which IC50 is reported for this compound? Cc1c(C)c2c(c(C)c1O)CCC(C)(C(=O)O)O2 (stereo unspecified)
25.88

Which IC50 is reported for this compound? `O=C1CCc2ccccc2N1CCCCN1CCN(C2CCCCC2)CC1`
38.29

Which IC50 is reported for this compound? `O=c1oc(-c2ccccc2)nn1CCCCN1CCC2(CC1)OCc1ccccc12`
21.19

Which IC50 is reported for this compound? `O=c1oc(-c2ccccc2)nn1CCCCN1CCN(C2CCCCC2)CC1`
73.07

Which IC50 is reported for this compound? `O=C1O[C@H]([C@@H](O)CO)C(O)=C1O`
17.11

====

// values below are reported viability at 48 h, 10 µM
assay.notes: Cytotoxicity against human HeLa cells assessed as cell viability at 10 uM incubated for 48 hrs by MTT assay relative to control
Format: cell-based
condition.parameters: read-out: Activity
# value in %; strip the unit string

Solved cases (8 shown):
compound	viability at 48 h, 10 µM [%]
O=C1CCc2ccccc2N1CCCCN1CCN(C2CCCCC2)CC1	83
Cc1ccc(CN(C)CCCCn2nc(-c3ccccc3)oc2=O)c(C)c1	86
O=C1CCc2ccccc2N1CCCCN1CCC2(CC1)OCc1ccccc12	92
COc1cc2c(cc1OC)CN(CCCCN1C(=O)CCc3ccccc31)CC2	80
O=c1oc(-c2ccccc2)nn1CCCCN1CCC2(CC1)OCc1ccccc12	99
O=C1CCc2ccccc2N1CCCCN1CCN(c2ccc(F)cc2)CC1	88
O=c1oc(-c2ccccc2)nn1CCCCN1CCN(C2CCCCC2)CC1	62
Cc1ccc(CN(C)CCCCN2C(=O)CCc3ccccc32)c(C)c1	79

# evaluate next
Which viability at 48 h, 10 µM is reported for this compound? `COc1cc2c(cc1OC)CN(CCCCn1nc(-c3ccccc3)oc1=O)CC2`
84

====

// values below are reported viability at 48 h, 25 µM
assay.notes: Cytotoxicity against human SH-SY5Y cells assessed as cell viability at 25 uM incubated for 48 hrs by MTT assay (reference value: 100 +/- 12.00%)
Assay type: cell-based
condition.parameters: read-out: Activity

Solved cases (5 shown):
compound	viability at 48 h, 25 µM
Cc1ccc(CN(C)CCCCN2C(=O)CCc3ccccc32)c(C)c1	79 to 95%
COc1cc2c(cc1OC)CN(CCCCn1nc(-c3ccccc3)oc1=O)CC2	80 to 94%
O=c1oc(-c2ccccc2)nn1CCCCN1CCC2(CC1)OCc1ccccc12	96 to 104%
O=C1CCc2ccccc2N1CCCCN1CCN(C2CCCCC2)CC1	81 to 111%
Cc1ccc(CN(C)CCCCn2nc(-c3ccccc3)oc2=O)c(C)c1	85 to 96%

# evaluate next
Which viability at 48 h, 25 µM is reported for this compound? `O=C1CCc2ccccc2N1CCCCN1CCC2(CC1)OCc1ccccc12`
88 to 107%

====

assay.notes: Cytotoxicity against human Hep3B cells assessed as cell viability at 10 uM incubated for 48 hrs by MTT assay relative to control
Assay type: cell-based, Hep 3B2
condition.parameters: read-out: Activity
Values of viability at 48 h, 10 µM strictly less than 90% map to criterion met, and values of at least 90% map to criterion not met.

# count of solved cases: 4
compound	class.label
O=C1CCc2ccccc2N1CCCCN1CCC2(CC1)OCc1ccccc12	criterion met
Cc1ccc(CN(C)CCCCn2nc(-c3ccccc3)oc2=O)c(C)c1	criterion not met
O=c1oc(-c2ccccc2)nn1CCCCN1CCN(C2CCCCC2)CC1	criterion met
COc1cc2c(cc1OC)CN(CCCCn1nc(-c3ccccc3)oc1=O)CC2	criterion met

Okay, next one:
# TODO verify viability at 48 h, 10 µM < 90% strictly for this compound: `COc1cc2c(cc1OC)CN(CCCCN1C(=O)CCc3ccccc31)CC2`
criterion met

====

assay.notes: Cytotoxicity against human SH-SY5Y cells assessed as cell viability at 100 uM incubated for 48 hrs by MTT assay (reference value: 100 +/- 12.00%)
Assay type: cell-based
condition.parameters: read-out: Activity
// values below are reported viability at 48 h, 100 µM
# value in %; strip the unit string

Solved cases (3 shown):
compound	recorded.number
O=c1oc(-c2ccccc2)nn1CCCCN1CCC2(CC1)OCc1ccccc12	1
O=C1CCc2ccccc2N1CCCCN1CCC2(CC1)OCc1ccccc12	16
Cc1ccc(CN(C)CCCCn2nc(-c3ccccc3)oc2=O)c(C)c1	28

Which viability at 48 h, 100 µM is reported for this molecule? `O=c1oc(-c2ccccc2)nn1CCCCN1CCN(C2CCCCC2)CC1`
105

Which viability at 48 h, 100 µM is reported for this molecule? `COc1cc2c(cc1OC)CN(CCCCN1C(=O)CCc3ccccc31)CC2`
37

Which viability at 48 h, 100 µM is reported for this molecule? `O=C1CCc2ccccc2N1CCCCN1CCN(c2ccc(F)cc2)CC1`
60

Which viability at 48 h, 100 µM is reported for this molecule? `Cc1ccc(CN(C)CCCCN2C(=O)CCc3ccccc32)c(C)c1`
78

Which viability at 48 h, 100 µM is reported for this molecule? `O=C1CCc2ccccc2N1CCCCN1CCN(C2CCCCC2)CC1`
99

Which viability at 48 h, 100 µM is reported for this molecule? `COc1cc2c(cc1OC)CN(CCCCn1nc(-c3ccccc3)oc1=O)CC2`
95
